Data credit: patent US20250206738A1

Assayed system: human Werner helicase (WRN, Uniprot Q14191, amino acids 517-1235 with L1074F point mutation; WRN-BV08) (Homo sapiens, UniProt Q14191, L1074F)
Construct: Uniprot Q14191, amino acids 517-1235 with L1074F point mutation; 8xHis (C, cleaved yes); TEV cleavage site (ENLYFQG) (C, cleaved yes)
Sequence (Q14191 with tags, fused parts or gaps L1074F): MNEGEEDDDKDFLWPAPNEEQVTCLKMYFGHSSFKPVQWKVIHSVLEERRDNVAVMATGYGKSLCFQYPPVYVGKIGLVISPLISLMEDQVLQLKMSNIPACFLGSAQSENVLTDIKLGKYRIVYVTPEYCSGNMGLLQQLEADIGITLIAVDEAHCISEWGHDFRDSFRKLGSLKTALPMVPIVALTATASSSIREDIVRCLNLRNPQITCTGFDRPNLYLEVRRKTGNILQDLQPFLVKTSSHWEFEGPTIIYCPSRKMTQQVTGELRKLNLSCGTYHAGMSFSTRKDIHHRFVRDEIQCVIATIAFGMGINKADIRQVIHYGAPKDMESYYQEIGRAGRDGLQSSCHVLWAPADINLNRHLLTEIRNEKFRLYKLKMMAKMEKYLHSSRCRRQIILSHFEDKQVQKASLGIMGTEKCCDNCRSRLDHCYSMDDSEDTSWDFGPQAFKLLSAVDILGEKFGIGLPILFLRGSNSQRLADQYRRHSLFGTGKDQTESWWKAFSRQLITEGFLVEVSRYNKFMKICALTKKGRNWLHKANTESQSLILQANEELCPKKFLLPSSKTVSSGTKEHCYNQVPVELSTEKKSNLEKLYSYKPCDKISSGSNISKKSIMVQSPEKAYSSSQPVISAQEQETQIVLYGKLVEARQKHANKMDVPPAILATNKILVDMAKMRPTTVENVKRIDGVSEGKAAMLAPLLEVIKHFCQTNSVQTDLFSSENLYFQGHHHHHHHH
Protocol summary: WRN (BV08) ADP-Glo assay
Condition context: WRN-BV08 (aa 517-1235, L1074F); read-out: ADP-Glo_hWRN_IC50
pIC50: −log10 of the molar value.
Consider the following compounds and their measured pIC50 readings.

Compound	pIC50
CCc1c(N2CCN(C(=O)c3ncnc(C)c3O)CC2)c(=O)n2nc(C3=CCOCC3)nc2n1CC(=O)NC12CC(C(C)C)(C1)C2 [I-234]	7.30 to 8.30
CCc1c(N2CCN(C(=O)c3ncnc(C)c3O)[C@H]3CC[C@@H]32)c(=O)n2c(=O)n(-c3ccnc(OC)c3)nc2n1CC(=O)NC12CC(C3CC3)(C1)C2 [I-209]	7.30 to 8.30
CCc1c(N2CCN(C(=O)c3ncnc(C)c3O)CC2)c(=O)n2nc(-c3ccnc(OC)c3)nc2n1CC(=O)NC1CC(C(F)(F)F)C1 (stereo not drawn) [I-27]	6.30 to 7.00
CCc1c(N2CCN(C(=O)c3c(OC)ccnc3O)[C@H]3CC[C@@H]32)c(=O)c2nn(C3=CCOCC3)nc2n1CC(=O)NC12CC(C(C)C)(C1)C2 [I-205]	7.30 to 8.30
CCc1c(N2CCN(C(=O)c3ncnc(C)c3O)CC2)c(=O)c2oc(-c3ccnc(OC)c3)nc2n1CC(=O)NC12CC(C(F)(F)F)(C1)C2 [I-17]	7.30 to 8.30
CCc1c(N2CCN(C(=O)c3ncnc(C)c3O)CC2)c(=O)n2nc(C3=CCOCC3)nc2n1CC(=O)NC12CC(C3CC3)(C1)C2 [I-32]	7.30 to 8.30
CCc1c(N2CCN(C(=O)c3ncnc(C)c3O)[C@H]3CC[C@@H]32)c(=O)c2nc(C)c(C)nc2n1CC(=O)NC12CC(C3CCC3)(C1)C2 [I-210]	7.30 to 8.30
CCc1c(N2CCN(C(=O)c3ncc4c(c3O)CCO4)CC2)c(=O)n2nc(C3=CCOCC3)nc2n1CC(=O)NC12CC(C3CCC3)(C1)C2 [I-211]	7.30 to 8.30

Consider now this further compound.
Query: What does the data say about its pIC50? Entry: CCc1c(N2CCN(C(=O)c3ncnc(C)c3O)[C@H]3CC[C@@H]32)c(=O)c2nc(N(C)C)cnc2n1CC(=O)NC12CC(C(F)(F)F)(C1)C2 (relative stereo) [I-2]
Response: 6.30 to 7.00
